Taken from PubChem BioAssay AID430.

test_details: cytotoxicity in HPDE-C7 cells, cell-based, fluorescence, HTS (AID 430);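 also: cells exposed to compound for 48 hours before viability readout; 0% = vehicle and 100% = reference cytotoxic drug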
condition_label: HPDE-C7 pancreatic duct cells viability, at 10 µM, hits give high values
Screen size: about 63,000 compounds; about 1,100 (1.7%) were called active. This excerpt belongs to a sample that is enriched for actives. Potency and affinity values are given separately.
Reported cytotoxicity values for the following compounds.
measure_name: cytotoxicity (%)

compound	measure_name	test_value
CC1Cc2ccccc2N1C(=O)c1cc2c(=O)n3ccccc3nc2n1C (centres undefined)	cytotoxicity	13.4
CSc1nc(N)nc(SCC(=O)c2ccc(C)cc2)c1C#N	cytotoxicity	3.8
COc1ccc(CC(=O)Nc2ccc(-c3noc(-c4cccc(OC)c4)n3)cc2)cc1	cytotoxicity	1
COc1ccc(C2=NOC(C(=O)NCC(C)C)C2)cc1 (centres undefined)	cytotoxicity	-14.9
O=C(Nc1ccc(-c2noc(-c3cccs3)n2)cc1)c1cccnc1	cytotoxicity	53.2
COc1ccc(C)cc1NS(=O)(=O)c1ccc(NS(=O)(=O)c2ccc(NC(C)=O)cc2)cc1	cytotoxicity	-5.6
Cc1cc(C)cc(N2C(=O)C3C4C=CC(C4)C3C2=O)c1 (centres undefined)	cytotoxicity	-5.5
COc1cccc(-c2nc(-c3ccc(NC(=O)c4cccnc4)cc3)no2)c1	cytotoxicity	70.7
CSc1nc(N)nc(SCC(=O)OC(C)C)c1C#N	cytotoxicity	-1.7
O=C(NCc1cccnc1)C1CC(c2ccc(F)cc2)=NO1 (centres undefined)	cytotoxicity	-10.8
O=C(COC(=O)C1(c2ccccc2F)CCCC1)NC1CCS(=O)(=O)C1 (centres undefined)	cytotoxicity	-14.8
O=c1oc2ccccc2n1CSc1nc2ccccc2s1	cytotoxicity	-4
COc1ccc(CNC(=O)C2CC(c3ccc(F)cc3)=NO2)cc1 (centres undefined)	cytotoxicity	1
COc1ccc(C2=NOC(C(=O)NCc3ccc(F)cc3)C2)cc1 (centres undefined)	cytotoxicity	63.5
O=C(Nc1ccc(F)cc1)C1CCCN(S(=O)(=O)c2cccc3cccnc23)C1 (centres undefined)	cytotoxicity	-10.4
COc1ccc(CNC(=O)C2CC(c3ccc(OC)cc3)=NO2)cc1 (centres undefined)	cytotoxicity	17.5
Cc1ccc2cc3c(nc2c1)N(Cc1ccco1)CC3	cytotoxicity	-15.5
CCNC(=O)c1cc2c(=O)n3cccc(C)c3nc2n(CCc2ccccc2)c1=N	cytotoxicity	61.3
CCCCc1ccc(NC(=O)OC)cc1	cytotoxicity	-16.3
Cc1ccc(-c2noc(-c3cccs3)n2)cc1	cytotoxicity	0.6
O=c1[nH]c2ccccc2cc1-c1noc(-c2cccnc2)n1	cytotoxicity	6.4
COc1ccc(C(=O)N(Cc2nc(-c3ccc(C)cc3)no2)C2CCCCC2)cc1OC	cytotoxicity	9.2
COc1ccc(CCC(=O)NCc2ccco2)cc1	cytotoxicity	-5.5
CCCCc1ccc(NC(=O)COCC)cc1	cytotoxicity	-12.8
